Attribution: patent US20250034153A1

# experimentalTarget: human adenosine A2B receptor (Homo sapiens (Human), UniProt P29275)
# Sequence (P29275 whole entry): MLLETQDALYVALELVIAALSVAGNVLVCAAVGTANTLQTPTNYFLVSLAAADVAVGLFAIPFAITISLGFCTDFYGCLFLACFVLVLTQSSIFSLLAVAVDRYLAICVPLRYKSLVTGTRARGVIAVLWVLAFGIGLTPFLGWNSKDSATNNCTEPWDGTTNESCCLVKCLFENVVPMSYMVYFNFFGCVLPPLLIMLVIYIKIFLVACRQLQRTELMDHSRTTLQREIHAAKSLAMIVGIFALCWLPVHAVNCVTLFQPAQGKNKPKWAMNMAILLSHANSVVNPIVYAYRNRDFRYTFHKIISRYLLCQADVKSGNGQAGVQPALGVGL
# assayDetails: Adenosine A2B receptor cyclic AMP GS assay (Example B)
# conditionLabel: HEK-293 cells expressing human A2B, agonist NECA 12 nM, cAMP accumulation (FRET); read-out: A2B_cAMP_EC50
pEC50: −log10 of the molar value.
Field: pEC50. Provide a value for each of the compounds that follow.

IN: Which value of pEC50 has been reported for Cc1cccc(COc2nc3c(-c4ccc(=O)n(C)c4)c(-c4cccc(C#N)c4)nc(N)n3n2)n1 in the records?
OUT: 7.00 to 8.00

IN: Which value of pEC50 has been reported for CCn1cc(-c2c(-c3cccc(C#N)c3F)nc(N)n3nc(NCc4ncccc4C)nc23)ccc1=O in the records?
OUT: 7.00 to 8.00

IN: Which value of pEC50 has been reported for N#Cc1cccc(-c2nc(N)n3nc(Cn4nnnc4-c4ncccn4)nc3c2-c2ccncn2)c1 in the records?
OUT: ≥ 8.00

IN: Which value of pEC50 has been reported for Cn1nc(-c2c(-c3cccc(C#N)c3)nc(N)n3nc(Cn4nnnc4-c4ccccn4)nc23)ccc1=O in the records?
OUT: 7.00 to 8.00

IN: Which value of pEC50 has been reported for Cc1cccc(CNc2nc3c(-c4ccncc4C)c(-c4cccc(C#N)c4)nc(N)n3n2)n1 in the records?
OUT: ≥ 8.00

IN: Which value of pEC50 has been reported for COc1cccc(-c2nnnn2Cc2nc3c(-c4ccncn4)c(-c4cccc(C#N)c4)nc(N)n3n2)n1 in the records?
OUT: 7.00 to 8.00

IN: Which value of pEC50 has been reported for Cc1cc(-c2c(-c3cccc(C#N)c3)nc(N)n3nc(OCc4ncccc4C)nc23)cc(C)n1 in the records?
OUT: 7.00 to 8.00

IN: Which value of pEC50 has been reported for Cc1cccc(-c2nnnn2Cc2nc3c(-c4ccncn4)c(-c4cccc(C#N)c4)nc(N)n3n2)n1 in the records?
OUT: ≥ 8.00
